Origin of values: ChEMBL document CHEMBL1147016

tested_on: Alpha-1A adrenergic receptor (Rattus norvegicus) (UniProt P43140)
Sequence (P43140 whole entry): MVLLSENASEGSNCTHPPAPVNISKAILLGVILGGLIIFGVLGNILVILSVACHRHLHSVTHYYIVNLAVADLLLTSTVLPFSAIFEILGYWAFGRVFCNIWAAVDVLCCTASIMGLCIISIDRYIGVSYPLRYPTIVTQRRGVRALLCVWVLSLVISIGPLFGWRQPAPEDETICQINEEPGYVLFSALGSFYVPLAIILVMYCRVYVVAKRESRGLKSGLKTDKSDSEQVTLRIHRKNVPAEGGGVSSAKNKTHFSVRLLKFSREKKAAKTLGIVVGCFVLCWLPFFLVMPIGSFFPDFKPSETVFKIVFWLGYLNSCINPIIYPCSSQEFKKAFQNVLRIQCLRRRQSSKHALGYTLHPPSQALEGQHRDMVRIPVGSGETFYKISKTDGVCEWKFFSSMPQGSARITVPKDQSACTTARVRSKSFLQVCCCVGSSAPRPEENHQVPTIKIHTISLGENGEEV
measurement_notes: Affinity to Adrenergic alpha-1A receptor in Wistar rat vas deferens
Format: tissue-based
Each record here notes measured pD'2.

Cn1nc(Cc2ccc(Cl)cc2)c2ccccc2c1=O
6.1
Oc1nnc(Cc2ccc3c(c2)OCO3)c2ccccc12
5.5
Cn1nc(Cc2ccccc2)c2ccccc2c1=O
5.8
Oc1nnc(Cc2ccc(Cl)cc2)c2ccccc12
5.4

# ---- query compound ----
Prompt: Fill in: pD'2 of `C=CCn1nc(Cc2ccc(Cl)cc2)c2ccccc2c1=O` is ___
Response: 5.4

----------
tested_on: Alpha-1D adrenergic receptor (Rattus norvegicus) (UniProt P23944)
measurement_notes: Inhibition of phenylephrine-stimulated Wistar rat aorta contraction at 10 uM
Format: functional, tissue-based
Parameters: scale not given: the % may be the effect or the level left
Each record here notes measured Activity.
Please state the figure in %; there is no need to write the unit.

Oc1nnc(Cc2ccc3c(c2)OCO3)c2ccccc12
86.7

Prompt: Any idea what Activity came out for `Oc1nnc(Cc2ccc(Cl)cc2)c2ccccc12` on Alpha-1D adrenergic receptor (Rattus norvegicus) (UniProt P23944)?
Response: 89.9

Prompt: Any idea what Activity came out for `Cn1nc(Cc2ccc(Cl)cc2Cl)c2ccccc2c1=O` on Alpha-1D adrenergic receptor (Rattus norvegicus) (UniProt P23944)?
Response: 80.7

Prompt: Any idea what Activity came out for `CSc1ccc(Cc2nnc(O)c3ccccc23)cc1` on Alpha-1D adrenergic receptor (Rattus norvegicus) (UniProt P23944)?
Response: 66

Prompt: Any idea what Activity came out for `Cn1nc(Cc2ccc(Cl)c(Cl)c2)c2ccccc2c1=O` on Alpha-1D adrenergic receptor (Rattus norvegicus) (UniProt P23944)?
Response: 60.3

----------
tested_on: Alpha-1D adrenergic receptor (Rattus norvegicus)
Sequence (P23944 whole entry): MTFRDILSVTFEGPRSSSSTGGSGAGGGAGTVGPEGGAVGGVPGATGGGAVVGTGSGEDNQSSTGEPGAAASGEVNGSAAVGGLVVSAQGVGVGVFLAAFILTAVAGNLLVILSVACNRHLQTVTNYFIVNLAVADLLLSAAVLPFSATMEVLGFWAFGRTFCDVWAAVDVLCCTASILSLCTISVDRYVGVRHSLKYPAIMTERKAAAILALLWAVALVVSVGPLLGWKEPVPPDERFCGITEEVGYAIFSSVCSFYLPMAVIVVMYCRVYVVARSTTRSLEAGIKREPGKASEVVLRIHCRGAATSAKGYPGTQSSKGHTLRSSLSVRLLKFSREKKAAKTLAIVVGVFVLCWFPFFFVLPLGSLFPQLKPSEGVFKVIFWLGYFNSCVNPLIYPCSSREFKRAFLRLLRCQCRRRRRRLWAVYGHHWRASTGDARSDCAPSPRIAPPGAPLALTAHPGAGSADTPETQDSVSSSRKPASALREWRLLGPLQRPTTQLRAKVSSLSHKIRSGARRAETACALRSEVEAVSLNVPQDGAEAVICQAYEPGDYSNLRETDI
measurement_notes: Vasorelaxation of phenylephrine-stimulated Wistar rat aorta contraction
pEC50: −log10 of the molar value.
Each record here notes measured pEC50.

// below: answered compounds
COc1cc(Cc2nn(C)c(=O)c3ccccc23)cc(OC)c1OC
< 5.00
C=CCn1nc(Cc2ccc(SC)cc2)c2ccccc2c1=O
< 4.00
Oc1nnc(Cc2ccc(Cl)c(Cl)c2)c2ccccc12
≥ 5.00
CSc1ccc(Cc2nn(C(C)(C)C)c(=O)c3ccccc23)cc1
< 4.00
CCCCn1nc(Cc2ccc(Cl)cc2)c2ccccc2c1=O
< 4.00
COc1ccc(Cc2nnc(O)c3ccccc23)cc1
< 5.00

Prompt: Fill in: pEC50 of `CSc1ccc(Cc2nn(-c3ccc(Br)cc3)c(=O)c3ccccc23)cc1` is ___
Response: < 4.00

----------
Each record here notes measured EC50.
tested_on: Alpha-1D adrenergic receptor (Rattus norvegicus)
Sequence (P23944 whole entry): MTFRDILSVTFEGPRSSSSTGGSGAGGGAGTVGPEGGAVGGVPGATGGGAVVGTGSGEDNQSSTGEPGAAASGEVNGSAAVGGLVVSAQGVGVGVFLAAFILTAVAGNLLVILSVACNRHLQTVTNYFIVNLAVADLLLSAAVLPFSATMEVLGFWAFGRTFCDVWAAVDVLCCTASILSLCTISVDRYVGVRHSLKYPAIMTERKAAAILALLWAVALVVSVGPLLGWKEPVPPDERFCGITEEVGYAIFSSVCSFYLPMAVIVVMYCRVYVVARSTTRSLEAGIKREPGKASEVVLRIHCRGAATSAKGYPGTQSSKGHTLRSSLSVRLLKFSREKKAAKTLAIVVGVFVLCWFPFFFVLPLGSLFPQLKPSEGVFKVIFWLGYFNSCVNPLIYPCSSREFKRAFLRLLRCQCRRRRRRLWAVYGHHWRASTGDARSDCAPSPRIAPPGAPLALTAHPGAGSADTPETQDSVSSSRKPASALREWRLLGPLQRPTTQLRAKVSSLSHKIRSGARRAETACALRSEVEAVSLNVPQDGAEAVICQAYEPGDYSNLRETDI
measurement_notes: Vasorelaxation of phenylephrine-stimulated Wistar rat aorta contraction

// below: answered compounds
Oc1nnc(Cc2ccc3ccccc3c2)c2ccccc12
> 10 µM
CCCCn1nc(Cc2ccc(SC)cc2)c2ccccc2c1=O
> 100 µM
COc1ccc(Cc2nn(-c3ccc(Br)cc3)c(=O)c3ccccc23)cc1OC
> 100 µM
O=c1c2ccccc2c(Cc2ccc(Cl)cc2)nn1-c1ccc(Br)cc1
> 30 µM
CC(C)(C)n1nc(Cc2ccc(Cl)cc2)c2ccccc2c1=O
> 100 µM

Prompt: Fill in: EC50 of `O=c1c2ccccc2c(Cc2ccc(Cl)cc2)nn1-c1ccccc1` is ___
Response: > 100 µM

Prompt: Fill in: EC50 of `COc1cc(Cc2nnc(O)c3ccccc23)cc(OC)c1OC` is ___
Response: > 100 µM

Prompt: Fill in: EC50 of `COc1ccc(Cc2nn(-c3ccccc3)c(=O)c3ccccc23)cc1OC` is ___
Response: > 100 µM

----------
tested_on: Alpha-1D adrenergic receptor (Rattus norvegicus, UniProt P23944)
measurement_notes: Vasorelaxation of phenylephrine-stimulated Wistar rat aorta contraction
Each record here notes measured EC50.

Prompt: Fill in: EC50 of `O=c1[nH]nc(Cc2ccccc2)c2ccccc12` is ___
Response: ≤ 10 µM

Prompt: Fill in: EC50 of `Cn1nc(Cc2ccccc2)c2ccccc2c1=O` is ___
Response: ≤ 10 µM

Prompt: Fill in: EC50 of `CCn1nc(Cc2ccc(SC)cc2)c2ccccc2c1=O` is ___
Response: > 100 µM

Prompt: Fill in: EC50 of `COc1ccc(Cc2nn(-c3ccc([N+](=O)[O-])cc3)c(=O)c3ccccc23)cc1OC` is ___
Response: > 100 µM

Prompt: Fill in: EC50 of `CSc1ccc(Cc2nn(-c3ccc([N+](=O)[O-])cc3)c(=O)c3ccccc23)cc1` is ___
Response: > 100 µM

Prompt: Fill in: EC50 of `Oc1nnc(Cc2ccc(Cl)cc2Cl)c2ccccc12` is ___
Response: < 10 µM

Prompt: Fill in: EC50 of `COc1ccc(Cc2nn(C)c(=O)c3ccccc23)cc1` is ___
Response: < 100 µM

Prompt: Fill in: EC50 of `CSc1ccc(Cc2nn(-c3ccccc3)c(=O)c3ccccc23)cc1` is ___
Response: > 100 µM

Prompt: Fill in: EC50 of `Cn1nc(Cc2ccc3ccccc3c2)c2ccccc2c1=O` is ___
Response: > 10 µM
